target: T1, FAM19A5 mutants M1 to M8 (Homo sapiens, UniProt Q7Z5A7); assay: Epitope mapping ELISA with FAM19A5 mutants M1-M8; format: binding
T1 construct: made in house; host or cells: phage display with helper phage
T1 sequence (Q7Z5A7 with tags, fused parts or gaps isoform Q7Z5A7-2, change not shown): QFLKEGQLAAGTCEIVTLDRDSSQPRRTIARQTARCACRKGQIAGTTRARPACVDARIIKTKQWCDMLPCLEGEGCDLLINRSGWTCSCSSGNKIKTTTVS
PROPERTY: binding to FAM19A5 mutant M8

[[record]]
molecule = "15A9: anti-FAM19A5 antibody; VH SEQ ID NO: 158, VL SEQ ID NO: 169 (antibody, V domains shown, 15A9 VH; 15A9 VL) VH: QVQLQESGPGLVKPSETLSLTCTVSGGSISSYYWSWIRQPPGKGLEWIGYIYPSGSTNYNPSLKSRVTISVDTSKNQFSLNLKSVTAVDTAVYYCARVNPFGYYYAMDVWGQGTTVTVSS VL: DIQMTQSPSSLSASVGDRITISCRASQSISTSLNWYQQTPGKAPRLLIYGASTLQSGVPSRFSGGGSGTDFSLTITSLQPEDFATYYCQESASIPRTFGQGTKLDIK"
property = "binding to FAM19A5 mutant M8"
endpoint_result = "failed to bind"

[[record]]
molecule = "1-65: anti-FAM19A5 antibody; VH SEQ ID NO: 37, VL SEQ ID NO: 41 (antibody, V domains shown, 1-65 VH; 1-65 VL) VH: AVTLDESGGGLQTPGGALSLVCKASGFTFSSYQMGWVRQAPGKGLEWVGVINKSGSDTSYGSAVKGRATISRDNGQSTVRLQLNNLRAEDTGTYFCAKGSASYITAATIDAWGHGTEVIVSS VL: ALTQPSSVSANPGETVKITCSGGGSSGYGYGWYQQKSPSSAPLTVIYWNDKRPSDIPSRFSGSKSGSTHTLTITGVQAEDEAVYFCGNDDYSSDSGYVGVFGAGTTLTVL"
property = "binding to FAM19A5 mutant M8"
endpoint_result = "failed to bind"

[[record]]
molecule = "P1-F02: anti-FAM19A5 antibody; VH SEQ ID NO: 161, VL SEQ ID NO: 172 (antibody, V domains shown, P1-F02 VH; P1-F02 VL) VH: QSLEESGGRLVTPGTPLTLTCTASGFSLSNYYMGWVRQAPGEGLEWIGIIYASGSTYYASWAKGRFTISKTSTTVDLKMTSLTTEDTATYFCARIDIGVGDYGWAYDRLDLWGQGTLVTVSS VL: ELDMTQTPPSLSASVGETVRIRCLASEDIYSGISWYQQKPGKPPTLLIYGASNLESGVPPRFSGSGSGTDYTLTIGGVQAEDAATYYCLGGYSYSSITFGAGTNVEIK"
property = "binding to FAM19A5 mutant M8"
endpoint_result = "failed to bind"

[[record]]
molecule = "P2-F07: anti-FAM19A5 antibody; VH SEQ ID NO: 164, VL SEQ ID NO: 175 (antibody, V domains shown, P2-F07 VH; P2-F07 VL) VH: QSLEESGGRLVTPGTPLTLTCTASGFSLSSYYMNWVRQAPGKGLEWIGIIYPSGTTYYAGWAKGRFTISKTSTTVDLKITSPTSEDTATYFCARTVSGYFDIWGPGTLVTVSL VL: ELDLTQTPPSLSASVGGTVTINCLASEDIYSALAWYQQKPGKPPTLLISGTSNLESGVPPRFSGSGSGTDYTLTIGGVQAEDAATYFCQGYSSYPLTFGAGTNVEIK"
property = "binding to FAM19A5 mutant M8"
endpoint_result = "failed to bind"


The origin of these recorded values is patent US20260265360A1.
